# Tested on: MS2 coat protein
# measurement-notes: apparent KD of MS2 coat protein; designed switch direction (-1 OFF switch, 1 ON switch): -1; higher = weaker reporter binding
# condition-context: input ligand: none
observation-type: apparent KD of MS2 coat protein (µM)
The answer is to be given in µM; state only the numeric part.

Exercise: What apparent KD of MS2 coat protein appears in the records for this sequence with MS2 coat protein? AAUAACAAGCCGAUCCUCUACAUGAGGAUCACCCAUGUGUUCGUCUUGUAAAGUACUAUCACGAAAGUGAUAGUACA (Eterna round: R97, puzzle: Sensor, turn-off variant 1)
Solution: 0.244

---
Exercise: What apparent KD of MS2 coat protein appears in the records for this sequence with MS2 coat protein? GCUAGGCAUGUCAGGAUAUGCAGAUCCUUGGAUCUGCAGAAGGGACAUGAGGAUCACCCAUGUGCCAACCUAGC [Mat - Exclusion 4 - JL Mod - D11] (Eterna round: R97, puzzle: Brourd's mod of Exclusion 4)
Solution: 0.047

Exercise: What apparent KD of MS2 coat protein appears in the records for this sequence with MS2 coat protein? CAGUACGGAGGAUAUACAUGAGGAUCACCCAUGUACGCGGGUGUCACUGGGAGAACUUGUAGAAGGCCGAGUCC [Eternabot (L1) Solution 8] (Eterna round: R97, puzzle: Exclusion 3)
Solution: 0.107

Exercise: What apparent KD of MS2 coat protein appears in the records for this sequence with MS2 coat protein? AUUUUGUCAGGAUAUUAGUAGUAAAUGAAUAAAAUUAUUACUGAGAAGGGACAUGAGGAUCACCCAUGUGUCUU [Mat - Exclusion 4 - Eli Mod - D9] (Eterna round: R97, puzzle: Exclusion 4)
Solution: 0.023

Exercise: What apparent KD of MS2 coat protein appears in the records for this sequence with MS2 coat protein? CAAUUAAUUAAUUAAUAAUACAUGAGGAUCACCCAUGUAGAUCCUACAUACAAGCUAAGUAGCUCGUCUUAUAAUUA [Stov1/2-A3] (Eterna round: R97, puzzle: Sensor, turn-off variant 1)
Solution: 0.625

Exercise: What apparent KD of MS2 coat protein appears in the records for this sequence with MS2 coat protein? CCGGCUUAGCAGGAUAUAGGAGUCGAUAGACACCUAGAAGGGCUAACAUGAGGAUCACCCAUGUGUCCUACCGG [Mod of Eli 2 - Jieux - Exclusion 6] (Eterna round: R97, puzzle: Exclusion 6)
Solution: 0.0476

Exercise: What apparent KD of MS2 coat protein appears in the records for this sequence with MS2 coat protein? CACGCAUCAGGAUAUACAUGAGGAUCACCCAUGUGUUCCAGCUAGGAAACUAGCAAAUGUAGAAGGGAUGCGUG [Mat - Exclusion 3 - JL Mod - D7] (Eterna round: R97, puzzle: Exclusion 3)
Solution: 0.208

Exercise: What apparent KD of MS2 coat protein appears in the records for this sequence with MS2 coat protein? CAGUACUGAGGAUAUACAUGAGGAUCACCCAUGUGUUCCGGCUAGGAAACUAGCAAAGGUAGAAGGCAGUACUG [Salish 065 m11] (Eterna round: R97, puzzle: Exclusion 3)
Solution: 0.0437

Exercise: What apparent KD of MS2 coat protein appears in the records for this sequence with MS2 coat protein? GGUAUGCAGGCUUUAGGUAACAUGAGGAUCACCCAUGUAGCAGGUCGUAACCAGGUCAUUGGUUCUCAACGCUCGUU [Eternabot (L2) Solution 46] (Eterna round: R97, puzzle: Sensor, turn-off variant 1)
Solution: 0.0344

----------
# maps each entry to its apparent KD of MS2 coat protein
# Tested on: MS2 coat protein
# measurement-notes: apparent KD of MS2 coat protein, switch ON state; designed switch direction (-1 OFF switch, 1 ON switch): 1; higher = weaker reporter binding
# condition-context: FMN input: 0 or 200 uM; Eterna round: R93 (includes R88 designs)
The answer is to be given in µM; state only the numeric part.

Exercise: What apparent KD of MS2 coat protein appears in the records for this sequence with MS2 coat protein? UUACAACAUGAGGAUCACCCAUGUAAACCCGACUAAGGAUAUGGAGUGAAAGAUAUCAUCCCAGAAGGUAGAAAUA [Istegeisis]
Solution: 0.0482

----------
# Test system: MS2 coat protein
# measurement-notes: apparent KD of MS2 coat protein; designed switch direction (-1 OFF switch, 1 ON switch): -1; higher = weaker reporter binding
# condition-context: input ligand: FMN 200 uM
# maps each entry to its apparent KD of MS2 coat protein
The answer is to be given in µM; state only the numeric part.

Exercise: For CUCCGCCGCAGAGGAUAUGGAUGUCGGAGACAUGAGGAUCACCCAUGUAUCCUGUCGAUGAGUACCCAGAAGGUUGUCACGCAU [Eternabot solution 49] (Eterna round: R96, puzzle: Exclusion NG 2) , what is its reported apparent KD of MS2 coat protein?
Solution: 0.0264

Exercise: For GCCUCACAUGAGGAUCACCCAUGUCAGGAUAUACCCAUCCAGCGAAAUUAAAGCUGUAGUAGAAGGGACAUGCA [Bevebeis] (Eterna round: R97, puzzle: Exclusion 1) , what is its reported apparent KD of MS2 coat protein?
Solution: 0.0537

Exercise: For CCCGUGUAAGGAUAUCGUUCACUUGGCAAAAGUCGAGUGGACGAGAAGGUACAUGAGGAUCACCCAUGUACGGG [-32.4, -32 kcal, A 28%] (Eterna round: R97, puzzle: Exclusion 4) , what is its reported apparent KD of MS2 coat protein?
Solution: 0.406

---
Exercise: For GCGGAUUAUGUAGGAUAUCGGUCAGUUUCUGAUCGAGAAGGACAUGAGGAUCACCCAUGUAAAUUCCUCGCUUUGUGAGGCCGC [JL ENG1 3.64] (Eterna round: R96, puzzle: Exclusion NG 1) , what is its reported apparent KD of MS2 coat protein?
Solution: 0.0315

Exercise: For AGGUAGUCAGGAUAUUAGUAGUAGCGGGAUAACGCUACUAUUGAGAAGGGACAUGAGGAUCACCCAUGUUUUGU [JR_Ex4_Sub067] (Eterna round: R97, puzzle: Exclusion 4) , what is its reported apparent KD of MS2 coat protein?
Solution: 0.0547

Exercise: For UACAUGAGGAUCACCCAUGUUUUGUCGUGUAUGGUAUUUAUCUAGGAUAUCAAUUUAGUAAUUUAUGAGAAGGAGAAUAUUAAU [JMF's solution 73] (Eterna round: R96, puzzle: Exclusion NG 3) , what is its reported apparent KD of MS2 coat protein?
Solution: 0.0375

----------
# maps each entry to its apparent KD of MS2 coat protein
# Tested on: MS2 coat protein
# measurement-notes: apparent KD of MS2 coat protein; designed switch direction (-1 OFF switch, 1 ON switch): -1; higher = weaker reporter binding
# condition-context: input ligand: none
The answer is to be given in nM; state only the numeric part.

As a guide, the following entries are already answered.
Exercise: For GCGCACCUACCAAAAGGUAGGCCCACAUGAGGAUCACCCAUGUAGGAUAUCGAUUGCUUUGCAGUCGAGAAGGACGUGAUGCGC [JL ENG3 3.80 Mod 17] (Eterna round: R96, puzzle: Exclusion NG 3) , what is its reported apparent KD of MS2 coat protein?
Solution: 18.3

Exercise: For CUGAACCCGGUAGGAUAUAUUGUGGGCAGGCGUGGAACGACAUGAGGAUCACCCAUGUAAUUGAGGUAGAAGGGCCGAGAGAUU [Excl-NG2-LRO14] (Eterna round: R96, puzzle: Exclusion NG 2) , what is its reported apparent KD of MS2 coat protein?
Solution: 37.1

Exercise: For GACUGGACAGGAUAUGUUCUUGAGCACUUGAGGAUCACCCAAGUCAUCAAGAACUCAGGCACAGAAGGGUUUAUGA [salish99_ex5_r4_008] (Eterna round: R97, puzzle: Exclusion 5) , what is its reported apparent KD of MS2 coat protein?
Solution: 13.5

Exercise: For UGUAAGCUAGGAUAUGCUUUGGGAAAGCAUUCCUUCGAUAAACUUGAGGAUCACCCAAGUAGAAGGAGCUUACC [salish99_ex2_r4_008] (Eterna round: R97, puzzle: Exclusion 2) , what is its reported apparent KD of MS2 coat protein?
Solution: 10.9

Exercise: For ACGUUCAUUGAACAUGAGGAUCACCCAUGUGGCCUCCGGGUGGAGGAUAUGCACCAGGCCGAGGUGUAGAAGGCCAUAUACCGA [Riraed] (Eterna round: R96, puzzle: Exclusion NG 3) , what is its reported apparent KD of MS2 coat protein?
Solution: 81.4

Exercise: For ACUGGAGCAGGAUAUAUAUGACGUGCUUCGGCACGGUGAGUACAUGAGGAUCACCCAUGUAGAAGGGCUCCAGU [Exclusion 2 (Mod2 of Brourd's E2/9-D2)] (Eterna round: R97, puzzle: Exclusion 2) , what is its reported apparent KD of MS2 coat protein?
Solution: 23.4

Exercise: For GUUUUAUAUGAAGGAUAUACUUAACAUGAGGAUCACCCAUGUGGUGUUGUGAGUGAGUGAGUUUAGUAGAAGGUCAAGUAUUUU [JMF's solution 56] (Eterna round: R96, puzzle: Exclusion NG 2) , what is its reported apparent KD of MS2 coat protein?
Solution: 319

Exercise: For UUUGUAUAUGAAGGAUAUACUUAACAUGAGGAUCACCCAUGUGGUGUUGUGAGUGAGUGAGUUUAGUAGAAGGUCAAUGAUUUU [JMF's solution 71] (Eterna round: R96, puzzle: Exclusion NG 2) , what is its reported apparent KD of MS2 coat protein?
Solution: 317

Exercise: For UGAUGUACUCAGGAUAUGAGUAGCUUUCGAGCAUCAGAAGGGAGUACAUGAGGAUCACCCAUGUUGGCCAUGUU [EX6 C.9] (Eterna round: R97, puzzle: Exclusion 6) , what is its reported apparent KD of MS2 coat protein?
Solution: 683

Exercise: For UGGUUGUCAGGAUAUACGGUUUUUAACUUUAGUUUUAUAUUGUAGAAGGGACAUGAGGAUCACCCAUGUUACGU [LRO-Excl4-11-Bluer Omei Mod] (Eterna round: R97, puzzle: Exclusion 4) , what is its reported apparent KD of MS2 coat protein?
Solution: 26.5

---
Exercise: For GAUUAGCGAGGAUAUACAUGAGGAUCACCCAUGUGAUCCUAAGGCUGAUCAAGCCUAUGUAGAAGGCGCAAAUC [salish99_ex3_r5_001] (Eterna round: R97, puzzle: Exclusion 3) , what is its reported apparent KD of MS2 coat protein?
Solution: 224

Exercise: For CUUGCACGACGAGGAUAUCGUAAACAUGAGGAUCACCCAUGUAGGUGGCGUCGUCCUCUAUCUUGCGAGAAGGCGUAAAAUUAA [Begeeda] (Eterna round: R96, puzzle: Exclusion NG 2) , what is its reported apparent KD of MS2 coat protein?
Solution: 39.4

Exercise: For UUCUUAUAUGAAGGAUAUACUUAACAUGAGGAUCACCCAUGUGGUGUUGUGAGUGAGUGAGUUUAGUAGAAGGUCAAUUCUUUU [JMF's solution 95] (Eterna round: R96, puzzle: Exclusion NG 2) , what is its reported apparent KD of MS2 coat protein?
Solution: 355

Exercise: For AUGUUACUCUGAGGAUAUUGUUUAUUCUUCUCACAUGAGGAUCACCCAUGUUUCCGUGUUUACCGCAAGAAGGCAGUUUUGUUU [JR_ExcNG2_Sub028] (Eterna round: R96, puzzle: Exclusion NG 2) , what is its reported apparent KD of MS2 coat protein?
Solution: 31.8

Exercise: For CGCUAGUCAGGAUAUACGAACAUGUCAAAAGACGUGAAGGGACAUGAGGAUCACCCAUGUAGAAGGGACUAGCA [salish99_ex2_r3_014] (Eterna round: R96, puzzle: Exclusion 2) , what is its reported apparent KD of MS2 coat protein?
Solution: 31.5

Exercise: For AUAAAUCAUGUAGGAUAUGCGUGGAGAAACUAUGCAGAAGGACAUGAGGAUCACCCAUGUGCUUCCGUCUGCGUACAGAUGGUA [Mat - Exclusion NG 1 - Mod of JL - D9] (Eterna round: R96, puzzle: Exclusion NG 1) , what is its reported apparent KD of MS2 coat protein?
Solution: 27.3

Exercise: For UUAAUAGCAGCGAGAUCCCACAUGAGGAUCACCCAUGUCGUAGACGAAAAGUCUACGUUAGCUCGUCUUAUAAAUAU [Winner reversed engineered 39] (Eterna round: R97, puzzle: Sensor, turn-off variant 1) , what is its reported apparent KD of MS2 coat protein?
Solution: 111

Exercise: For AAUUAGCAAGCGAGAUCCCACAUGAGGAUCACCCAUGUGCUCGUCUUAUAUAAGGUACUGUACGAGAGUACGGUACC [Mat - Sensor, turn-off var - Eli Mod - D30] (Eterna round: R97, puzzle: Sensor, turn-off variant 1) , what is its reported apparent KD of MS2 coat protein?
Solution: 10.6
